Target: Histone deacetylase (Homo sapiens) (UniProt Q13547+O15379+Q9UBN7+Q92769+Q9UQL6+Q8WUI4+Q9BY41+Q96DB2+P56524+Q9UKV0+Q969S8)
Experiment: Inhibition of HDAC in human HL60 cells assessed as upregulation of H3 acetylation levels at 2 uM after 18 hrs by SDS-PAGE analysis
Type: cell-based
The source made the active and inactive calls. The calls are words filed in the database; no cut-off is given here.
One label from this list, please: active, inactive

[
  {
    "compound": "O=C(NCCSSCCNC(=O)/C(Cc1ccc(O)c(Br)c1)=N/O)/C(Cc1ccc(O)c(Br)c1)=N/O [PSAMMAPLIN A]",
    "labelClass": "active"
  },
  {
    "compound": "O=C(NCCSSCCNC(=O)/C(Cc1ccc2c(c1)OCO2)=N/O)/C(Cc1ccc2c(c1)OCO2)=N/O",
    "labelClass": "active"
  },
  {
    "compound": "COc1ccc(C/C(=N\\O)C(=O)NCCSSCCNC(=O)/C(Cc2ccc(OC)c(O)c2)=N/O)cc1O",
    "labelClass": "active"
  }
]

Hey, what did the test say about CO/N=C(\Cc1ccc(C)cc1)C(=O)NCCSSCCNC(=O)/C(Cc1ccc(C)cc1)=N/OC ? inactive

Could you please tell me the result logged for Cc1ccc(C/C(=N\O)C(=O)NCCSSCCNC(=O)/C(Cc2ccc(C)cc2)=N/O)cc1 in this assay? active

What call does the record list for COc1cc(C/C(=N\O)C(=O)NCCSSCCNC(=O)/C(Cc2ccc(O)c(OC)c2)=N/O)ccc1O ? active

Source of measurements: ChEMBL document CHEMBL4425173
